Tested on: 967376-340-R-J2-PDC multicell spheroid viability
Test: Anticancer human tumor 967376-340-R-J2-PDC patient-derived colon adenocarcinoma cell line growth inhibition [PI3K]
Conditions: compound 10 µM; active compounds read low
Parameter viability, T/C: see the listing below.

Cc1nc(NC(=O)N2CCCC2C(N)=O)sc1-c1ccnc(C(C)(C)C(F)(F)F)c1 (stereo not drawn)
45.7% [middle of 8 runs]
Cn1ncc(Cl)c1-c1cc(C(=O)NC(CN)Cc2cccc(F)c2)sc1Cl (stereo not drawn)
76.4% [middle of 4 runs]
CCCS(=O)(=O)Nc1ccc(F)c(C(=O)c2c[nH]c3ncc(-c4ccc(Cl)cc4)cc23)c1F
56.4% [middle of 4 runs]
C[C@@H](NC(=O)c1ncnc(N)c1Cl)c1ncc(C(=O)Nc2cc(C(F)(F)F)c(Cl)cn2)s1
109% [middle of 4 runs]
CC1(C)CCC(Nc2ncc(C(F)(F)F)c(-c3c[nH]c4c(P(C)(C)=O)c(C#N)ccc34)n2)CN1 (stereo not drawn)
48.1% [middle of 4 runs]
CC(C)NCC(C(=O)N1CCN(c2ncnc3c2C(C)CC3O)CC1)c1ccc(Cl)cc1 (stereo not drawn)
83.2% [middle of 4 runs]
CNC(=O)c1ccc(N2C(=S)N(c3ccc(C#N)c(C(F)(F)F)c3)C(=O)C2(C)C)cc1F
102% [middle of 4 runs]

Task item: // query viability, T/C value for entry Cn1nccc1Nc1nccc(-c2ccn(C(CO)c3ccc(Cl)c(F)c3)c(=O)c2)n1 (stereo not drawn)
Reply: 99.5% [middle of 4 runs]

---

Test system: 967376-340-R-J2-PDC multicell spheroid viability
Assay: Anticancer human tumor 967376-340-R-J2-PDC cell line growth inhibition [PI3K]
Settings: second compound 0.0316 µM; first compound 3.16 µM; active compounds read low
Here the recorded viability, T/C is given for each entry.
Kindly answer with a numeric value in %, unit omitted.

Please review the following examples before continuing.
Cn1ncc(Cl)c1-c1cc(C(=O)NC(CN)Cc2cccc(F)c2)sc1Cl (stereo unspecified) + CC(Nc1ncnc2nc[nH]c12)c1cc2cccc(Cl)c2c(=O)n1-c1ccccc1
66.9
CCCS(=O)(=O)Nc1ccc(F)c(C(=O)c2c[nH]c3ncc(-c4ccc(Cl)cc4)cc23)c1F + Cc1nc(NC(=O)N2CCCC2C(N)=O)sc1-c1ccnc(C(C)(C)C(F)(F)F)c1
105
CC(C)NCC(C(=O)N1CCN(c2ncnc3c2C(C)CC3O)CC1)c1ccc(Cl)cc1 (stereo unspecified) + CC(Nc1ncnc2nc[nH]c12)c1cc2cccc(Cl)c2c(=O)n1-c1ccccc1
88.6

Task item: Please give the measured viability, T/C for this compound: C[C@@H](NC(=O)c1ncnc(N)c1Cl)c1ncc(C(=O)Nc2cc(C(F)(F)F)c(Cl)cn2)s1 + CC(Nc1ccc2c(c1)OCCn1cc(N3C(=O)OCC3C(F)F)nc1-2)C(N)=O
Reply: 95.2

Task item: Bench note: what viability, T/C did C[C@@H](NC(=O)c1ncnc(N)c1Cl)c1ncc(C(=O)Nc2cc(C(F)(F)F)c(Cl)cn2)s1 + Cc1nc(NC(=O)N2CCCC2C(N)=O)sc1-c1ccnc(C(C)(C)C(F)(F)F)c1 show?
Reply: 94.2

Task item: Requested read-out: viability, T/C. Entry: Cn1nccc1Nc1nccc(-c2ccn(C(CO)c3ccc(Cl)c(F)c3)c(=O)c2)n1 (stereo unspecified) + COc1c(OCCCN2CCOCC2)ccc2c3n(c(=NC(=O)c4cnc(N)nc4)nc12)CCN3
Reply: 83.1

---

System: 967376-340-R-J2-PDC multicell spheroid viability
Assay: Anticancer human tumor 967376-340-R-J2-PDC cell line growth inhibition [PI3K]
Conditions: second compound 0.00316 µM; first compound 0.0316 µM; active compounds read low
readoutKind: viability, T/C (%)
Output spec: scalar in %, unitless text.

Solved cases below.
C[C@@H](NC(=O)c1ncnc(N)c1Cl)c1ncc(C(=O)Nc2cc(C(F)(F)F)c(Cl)cn2)s1 + COc1c(OCCCN2CCOCC2)ccc2c3n(c(=NC(=O)c4cnc(N)nc4)nc12)CCN3
94.3
Cn1nccc1Nc1nccc(-c2ccn(C(CO)c3ccc(Cl)c(F)c3)c(=O)c2)n1 (stereo not drawn) + CC(Nc1ccc2c(c1)OCCn1cc(N3C(=O)OCC3C(F)F)nc1-2)C(N)=O
100

Now for a further compound.
Task item: What value of viability, T/C on 967376-340-R-J2-PDC multicell spheroid viability does Cn1ncc(Cl)c1-c1cc(C(=O)NC(CN)Cc2cccc(F)c2)sc1Cl (stereo not drawn) + COc1c(OCCCN2CCOCC2)ccc2c3n(c(=NC(=O)c4cnc(N)nc4)nc12)CCN3 have?
Reply: 93.7

---

# maps each entry to its viability, T/C
Test system: 967376-340-R-J2-PDC multicell spheroid viability
Assay: Anticancer human tumor 967376-340-R-J2-PDC cell line growth inhibition [PI3K];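 further: luminescence used as surrogate of cell viability; spheroids exposed to agents for 7 days before read-out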
Settings: second compound 0.316 µM; first compound 3.16 µM; active compounds read low
API: value field is a number in %; no unit string.

Task item: Can you share its viability, T/C? I mean this compound: C#Cc1c(F)ccc2cc(O)cc(-c3ncc4c(N5CC6CCC(C5)N6)nc(OCC56CCCN5CC(F)C6)nc4c3F)c12 (stereo not drawn) + COc1c(OCCCN2CCOCC2)ccc2c3n(c(=NC(=O)c4cnc(N)nc4)nc12)CCN3
Reply: 63.6

Task item: Need viability, T/C, item C=CC(=O)N1CCN(c2nc(=O)n(-c3c(C)ccnc3C(C)C)c3nc(-c4c(O)cccc4F)c(F)cc23)C(C)C1 (stereo not drawn) + COc1c(OCCCN2CCOCC2)ccc2c3n(c(=NC(=O)c4cnc(N)nc4)nc12)CCN3
Reply: 50.1

Task item: Suppose we examine the compound CC(C)NCC(C(=O)N1CCN(c2ncnc3c2C(C)CC3O)CC1)c1ccc(Cl)cc1 (stereo not drawn) + CC(Nc1ccc2c(c1)OCCn1cc(N3C(=O)OCC3C(F)F)nc1-2)C(N)=O ; what viability, T/C value has been reported?
Reply: 57.8

---

Tested on: 967376-340-R-J2-PDC multicell spheroid viability
Assay: Anticancer human tumor 967376-340-R-J2-PDC cell line growth inhibition [PI3K]; active = viability on the fitted dose curve at most 10% of control; inactive = the rest;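 further: luminescence used as surrogate of cell viability; spheroids exposed to agents for 7 days before read-out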
Conditions: second compound 1 µM; first compound 3 µM
Pick one: Y = active, N = inactive

Cn1cnc2c(F)c(Nc3ccc(Br)cc3Cl)c(C(=O)NOCCO)cc21 + COc1c(OCCCN2CCOCC2)ccc2c3n(c(=NC(=O)c4cnc(N)nc4)nc12)CCN3
Y
Cn1cnc2c(F)c(Nc3ccc(Br)cc3Cl)c(C(=O)NOCCO)cc21 + Cc1nc(NC(=O)N2CCCC2C(N)=O)sc1-c1ccnc(C(C)(C)C(F)(F)F)c1
N
Cn1cnc2c(F)c(Nc3ccc(Br)cc3Cl)c(C(=O)NOCCO)cc21 + CC(Nc1ccc2c(c1)OCCn1cc(N3C(=O)OCC3C(F)F)nc1-2)C(N)=O
Y

Task item: Test call for this molecule, please: Cn1cnc2c(F)c(Nc3ccc(Br)cc3Cl)c(C(=O)NOCCO)cc21 + CC(Nc1ncnc2nc[nH]c12)c1cc2cccc(Cl)c2c(=O)n1-c1ccccc1
Reply: N

---

System: 967376-340-R-J2-PDC multicell spheroid viability
Assay: Anticancer human tumor 967376-340-R-J2-PDC cell line growth inhibition [PI3K];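 further: luminescence used as surrogate of cell viability; spheroids exposed to agents for 7 days before read-out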
Details: second compound 0.1 µM; first compound 0.01 µM; active compounds read low
readoutKind: viability, T/C

CCN1CCN(Cc2ccc(Nc3ncc(F)c(-c4cc(F)c5nc(C)n(C(C)C)c5c4)n3)nc2)CC1 + CC(Nc1ncnc2nc[nH]c12)c1cc2cccc(Cl)c2c(=O)n1-c1ccccc1
106%
Cn1ncnc1[C@H]1c2n[nH]c(=O)c3cc(F)cc(c23)N[C@@H]1c1ccc(F)cc1 + CC(Nc1ncnc2nc[nH]c12)c1cc2cccc(Cl)c2c(=O)n1-c1ccccc1
109%
CC(=O)c1c(C)c2cnc(Nc3ccc(N4CCNCC4)cn3)nc2n(C2CCCC2)c1=O + Cc1nc(NC(=O)N2CCCC2C(N)=O)sc1-c1ccnc(C(C)(C)C(F)(F)F)c1
99.4%
Cn1ncnc1[C@H]1c2n[nH]c(=O)c3cc(F)cc(c23)N[C@@H]1c1ccc(F)cc1 + COc1c(OCCCN2CCOCC2)ccc2c3n(c(=NC(=O)c4cnc(N)nc4)nc12)CCN3
53.5%
CCN1CCN(Cc2ccc(Nc3ncc(F)c(-c4cc(F)c5nc(C)n(C(C)C)c5c4)n3)nc2)CC1 + COc1c(OCCCN2CCOCC2)ccc2c3n(c(=NC(=O)c4cnc(N)nc4)nc12)CCN3
57.6%

From here, focus on the item given below.
Task item: Return reported viability, T/C; argument: CC(=O)c1c(C)c2cnc(Nc3ccc(N4CCNCC4)cn3)nc2n(C2CCCC2)c1=O + COc1c(OCCCN2CCOCC2)ccc2c3n(c(=NC(=O)c4cnc(N)nc4)nc12)CCN3
Reply: 59.3%

---

System: 967376-340-R-J2-PDC multicell spheroid viability
Assay: Anticancer human tumor 967376-340-R-J2-PDC cell line growth inhibition [PI3K];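 further: luminescence used as surrogate of cell viability; spheroids exposed to agents for 7 days before read-out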
Conditions: second compound 0.1 µM; first compound 0.01 µM; active compounds read low
Recorded viability, T/C by entry
Give the quantity in %, number only.

Please review the following examples before continuing.
Cn1ncnc1[C@H]1c2n[nH]c(=O)c3cc(F)cc(c23)N[C@@H]1c1ccc(F)cc1 + Cc1nc(NC(=O)N2CCCC2C(N)=O)sc1-c1ccnc(C(C)(C)C(F)(F)F)c1
92.8
CC(=O)c1c(C)c2cnc(Nc3ccc(N4CCNCC4)cn3)nc2n(C2CCCC2)c1=O + CC(Nc1ccc2c(c1)OCCn1cc(N3C(=O)OCC3C(F)F)nc1-2)C(N)=O
64.3

From here, focus on the item given below.
Task item: Tell me reported viability, T/C for CC(C)n1nc(-c2ccc3oc(N)nc3c2)c2c(N)ncnc21 + Cc1nc(NC(=O)N2CCCC2C(N)=O)sc1-c1ccnc(C(C)(C)C(F)(F)F)c1 , tested with 967376-340-R-J2-PDC multicell spheroid viability.
Reply: 73
